Give P1 score for every item shown.
- TARGET: M44-modified L NTAA target peptides (M44-L-P2-peptide)
- EXPERIMENTAL DETAILS: Gini coefficient of P1 selectivity from multiplex encoding heatmap
One number for each entry.

>>> reading("engineered M44-L binder (SEQ ID NO: 31) (designed binder, not shown: small tags and cut ends; large carriers) QDSTQNLIPAPPLISVPLQPGFWTERFQGRWFLVGFAGNAVQKERQSRLTMQSLILELQEDNSYNITAINVRGQGCRYIISTLVPSSRPGQFTLGNIHSYPQIQSLDVQVADTDYDQFAMVFLQGTSENKQYFEVALAGRTKGLSDELKERFVSFAKSLGLKDNNIVFSVPTDQCIDN")
0.332
>>> reading("SEQ ID NO 26 (designed binder, not shown: small tags and cut ends; large carriers) QVSVQPNFQQDKFLGRWFAAGYASNSSWRRERSAALSMAKVVVAPATDGGLNWTETILRKNQCETATNLLQPAGSLGSYSIRSPHAGSTSSMSVVETDYDQYALLYAQGSKGPGEDFRLAILLSRTQTPRAELKEKFTAFSKAQGFTEDTIVFLPQTDKCMTEQ")
0.501

Proceed to the following item.
*Q* # input binder: SEQ ID NO 22 (designed binder, not shown: small tags and cut ends; large carriers) QVSVQPNFQQDKFLGRWFTAGLASNSSWLREKFAALSHAKTVVAPATDGGLNLTVTVLRKNQCETSTLLLQPAGSLGSYSRRSPHVGSTGSVSVVETDYDQYALIYDQGSKGPGEDWRIAELVSRTQTPRAELKEKFTAFSKAQGFTEDTIVFLPQTDKCMTEQ ; wanted: its P1 score
*A* 0.418
